This collection of values is drawn from paper PMC5539068.

Test system: 786-O cells
Test: Cell proliferation assay (MTT), 786-O
Settings: Homo sapiens, 786-0, 72 h, read-out: IC50 786-O
Readout Label: IC50

* CCN(CC)CCN1Cc2[nH]c(/C=C3\C(=O)Nc4ccc(S(=O)(=O)Nc5ccccc5)cc43)c(C)c2C1=O | > 10 µM

Specify reported IC50 for the compound shown: CCN(CC)CCNC(=O)c1c(C)[nH]c(/C=C2\C(=O)Nc3ccc(F)cc32)c1C [Sunitinib, sunitinib, reference compound]
7.89 µM

Specify reported IC50 for the compound shown: "CCN(CC)CCN1Cc2[nH]c(/C=C3\C(=O)Nc4ccc(NS(C)(=O)=O)cc43)c(C)c2C1=O"
> 10 µM

---

Molecular target: VEGFR-2 (Homo sapiens, UniProt P35968)
Sequence (P35968 20-1356): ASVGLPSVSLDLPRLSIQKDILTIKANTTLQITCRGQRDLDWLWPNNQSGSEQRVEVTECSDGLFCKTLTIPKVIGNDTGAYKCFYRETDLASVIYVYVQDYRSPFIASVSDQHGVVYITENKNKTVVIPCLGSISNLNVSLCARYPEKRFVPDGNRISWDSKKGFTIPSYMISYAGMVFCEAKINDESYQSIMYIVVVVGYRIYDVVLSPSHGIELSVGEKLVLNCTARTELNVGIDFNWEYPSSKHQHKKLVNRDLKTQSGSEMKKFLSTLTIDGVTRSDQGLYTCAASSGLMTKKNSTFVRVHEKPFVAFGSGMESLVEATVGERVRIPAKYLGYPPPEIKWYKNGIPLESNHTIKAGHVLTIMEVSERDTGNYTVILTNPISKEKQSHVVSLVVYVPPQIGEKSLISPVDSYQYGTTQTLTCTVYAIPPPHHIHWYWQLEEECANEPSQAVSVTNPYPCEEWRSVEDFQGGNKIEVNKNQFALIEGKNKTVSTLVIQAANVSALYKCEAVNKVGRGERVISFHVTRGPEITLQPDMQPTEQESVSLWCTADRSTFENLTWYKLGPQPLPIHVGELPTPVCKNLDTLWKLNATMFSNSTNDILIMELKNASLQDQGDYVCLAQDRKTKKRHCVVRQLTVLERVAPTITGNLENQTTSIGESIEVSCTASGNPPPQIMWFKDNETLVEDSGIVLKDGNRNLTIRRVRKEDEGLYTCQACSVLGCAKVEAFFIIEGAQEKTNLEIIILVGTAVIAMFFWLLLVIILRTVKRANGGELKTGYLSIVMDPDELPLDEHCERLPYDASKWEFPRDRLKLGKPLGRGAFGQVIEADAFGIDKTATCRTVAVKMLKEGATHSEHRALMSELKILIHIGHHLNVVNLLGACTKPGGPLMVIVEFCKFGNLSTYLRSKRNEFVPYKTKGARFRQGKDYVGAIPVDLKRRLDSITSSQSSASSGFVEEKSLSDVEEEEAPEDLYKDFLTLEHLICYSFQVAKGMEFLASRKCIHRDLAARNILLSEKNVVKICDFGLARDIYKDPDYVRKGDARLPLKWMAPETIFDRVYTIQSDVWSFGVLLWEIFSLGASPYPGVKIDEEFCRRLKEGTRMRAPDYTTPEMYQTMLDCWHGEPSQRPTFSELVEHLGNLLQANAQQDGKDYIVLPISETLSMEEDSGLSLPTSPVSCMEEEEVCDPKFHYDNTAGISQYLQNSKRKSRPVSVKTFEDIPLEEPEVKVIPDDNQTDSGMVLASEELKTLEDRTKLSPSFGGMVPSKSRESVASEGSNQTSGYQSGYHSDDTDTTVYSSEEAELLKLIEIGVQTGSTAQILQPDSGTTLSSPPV
Test: In-vitro kinase assay (HotSpot, 33P), VEGFR-2
Settings: read-out: % inhibition of VEGFR-2 at 80 nM
Readout Label: inhibition at 0.08 µM (%)

• CCN(CC)CCN1Cc2[nH]c(/C=C3\C(=O)Nc4ccc(O)cc43)c(C)c2C1=O = 58
• CCN(CC)CCN1Cc2[nH]c(/C=C3\C(=O)Nc4ccc(S(=O)(=O)N(CC)CC)cc43)c(C)c2C1=O = 0
• CCN(CC)CCN1Cc2[nH]c(/C=C3\C(=O)Nc4ccc([N+](=O)[O-])cc43)c(C)c2C1=O = 13
• CCN(CC)CCN1Cc2[nH]c(/C=C3\C(=O)Nc4ccc(S(=O)(=O)N(CCCl)CCCl)cc43)c(C)c2C1=O = 46

[I] CCN(CC)CCN1Cc2[nH]c(/C=C3\C(=O)Nc4ccc(S(=O)(=O)Nc5ccccc5)cc43)c(C)c2C1=O
[II] CCN(CC)CCN1Cc2[nH]c(/C=C3\C(=O)Nc4ccc(C(F)(F)F)cc43)c(C)c2C1=O
[III] CCN(CC)CCN1Cc2[nH]c(/C=C3\C(=O)Nc4ccc(OC)cc43)c(C)c2C1=O
[IV] CCN(CC)CCN1Cc2[nH]c(/C=C3\C(=O)Nc4ccc(NS(C)(=O)=O)cc43)c(C)c2C1=O
Rank the items in ascending order with respect to inhibition at 0.08 µM. I'd appreciate it if you listed the labels in the requested order.
II, IV, I, III
(II: 0%, IV: 4%, I: 15%, III: 41%)
